assay: Half life in cell culture medium at 10 uM by HPLC method; format: physicochemical
recorded endpoint: half-life at 10 µM

*Q* What does the data say about its half-life at 10 µM? Entry: Cc1ccc2c(=O)c3cccc(CC(=O)OCCCCCCOc4c5c(cc6c(=O)c7ccccc7oc46)CCC(C)(C)O5)c3oc2c1C
*A* 24.8 h

---

tested on: MCF7; test: Antiproliferative activity against human MCF7 cells co-treated with DMXAA at 1:1 molar ratio after 24 hrs by MTT assay; type: functional, cell-based; details: MCF7, 24 h
recorded endpoint: IC50 (µM)
Give bare numbers, in µM.

*Q* Fill blank: measured IC50 of the compound CC1(C)CCc2cc3c(=O)c4ccccc4oc3c(O)c2O1 is ____.
*A* 11.9

---

test system: L02; test: Antiproliferative activity against human HL-7702 cells after 24 hrs by MTT assay; format: functional, cell-based; details: L02, 24 h
recorded endpoint: pIC50
Answers are plain numbers, as −log10 of the molar value.

*Q* pIC50 for Cc1ccc2c(=O)c3cccc(CC(=O)O)c3oc2c1C ?
*A* 3.99

---

system: HepG2; test: Antiproliferative activity against human HepG2 cells co-treated with pyranoxanthone at 1:1 molar ratio after 24 hrs by MTT assay; format: functional, cell-based; conditions: HepG2, 24 h
recorded endpoint: IC50 (µM)
Answers are plain numbers, in µM.

*Q* Look up IC50 with HepG2 for this molecule: Cc1ccc2c(=O)c3cccc(CC(=O)O)c3oc2c1C [VADIMEZAN]
*A* 21.2

---

Give measured IC50 for each item. Keep answers brief.
system: MCF7; test: Antiproliferative activity against human MCF7 cells after 24 hrs by MTT assay; format: functional, cell-based; settings: MCF7, 24 h
Numbers only, in µM.

*Q* Return IC50 measured with MCF7 given this compound: Cc1ccc2c(=O)c3cccc(CC(=O)OCCCCCCOc4c5c(cc6c(=O)c7ccccc7oc46)CCC(C)(C)O5)c3oc2c1C
*A* 0.534

*Q* Record lookup: for MCF7, what IC50 belongs to Cc1ccc2c(=O)c3cccc(CC(=O)OCCCCOc4c5c(cc6c(=O)c7ccccc7oc46)CCC(C)(C)O5)c3oc2c1C ?
*A* 33.2

*Q* Short answer please: IC50, MCF7, entry Cc1ccc2c(=O)c3cccc(CC(=O)OCCCOc4c5c(cc6c(=O)c7ccccc7oc46)CCC(C)(C)O5)c3oc2c1C
*A* 51.7

*Q* Form field: IC50 recorded for Cc1ccc2c(=O)c3cccc(CC(=O)OCCCCCOc4c5c(cc6c(=O)c7ccccc7oc46)CCC(C)(C)O5)c3oc2c1C with MCF7 (enter value)
*A* 8.72

// below: IC50 requested for another compound
*Q* API: value(readout= IC50, system= MCF7, query= CC1(C)CCc2cc3c(=O)c4ccccc4oc3c(O)c2O1 )
*A* 102
